Each entry below carries its recorded bead binding signal (median fluorescence, fold over isotype control).
- system_under_test: SARS-CoV Spike protein (SARS-CoV, UniProt P59594 14-1190)
Entry rule: numbers only, all in fold over isotype control.

Fill in the blank: the reported bead binding signal (median fluorescence, fold over isotype control) of antibody 380 (antibody, V domains shown) VH: QVQLVESGGGVVQPGRSLRLSCAASGFTLKNYGMHWVRQAPGKGLEWVIVLSFDGSDEYKADSVRGRFTVSRDNSKNTLFLQMNSLRPDDTAVYYCAREQPTMIEGGRGPFDIWGQGTMVTVSS VL: EVVMTQSPATLSVSPGDRATLSCRASQGVNSNLAWYQQKPGQAPRLLIYAASTRATGIPARFSASGSGTHFTLTISSLQSEDFAVYYCLQYNNWPPWTFGQGTKLEIK is ____.
1.21

Fill in the blank: the reported bead binding signal (median fluorescence, fold over isotype control) of antibody 333 (antibody, V domains shown) VH: QVHLVESGGGVVLPGRSLRLSCSASQFIFSNYDMHWVRQSPGMGLEWVAGISSDGSDKYYIDSVRGRFTISRDNAKNTLFLQMNSLTTEDTAVYSCAKGGGKFGQYWGRGTLVTVSS VL: AIQMTQSPSSLSASVGDRVTITCRASQVIRNDLAWFQQKPGEAPNLLVYSASNLQSGVPSRFSGSGSGTDFTLTISSLQPEDFATYYCLQDYSYPYTFGQGTKLDMK is ____.
1.21

Fill in the blank: the reported bead binding signal (median fluorescence, fold over isotype control) of antibody 372 (antibody, V domains shown) VH: QVQLVESGGGVVQPGRSLRLSCAASGFTFSSYAMHWVRQAPGKGLEWVAVISYDGSNKYYADSVKGRFTISRDNSKNTLYLQMNSLRAEDTAVYYCARDLGTSALLWFGELFLNYGMDVWGQGTTVTVSS VL: QSALTQPRSVSGSPGQSVTISCTGTSSDVGGYNYVSWYQQHPGKAPKLMIYDVSKRPSGVPDRFSGSKSGNTASLTISGLQAEDEADYYCCSYAGSPILVFGGGTKLTVL is ____.
1.08
